Tested on: NCI-H1395
Assay: relative viability (nuclei count vs DMSO), 5 days (fraction); higher = more cells survive
Settings: first compound 0.1265 µM
metric: relative viability
Reply briefly: the number, and no unit.

[[record]]
compound = "O=C(O)c1ccc(-c2c[nH]c3ncc(-c4ccccc4)cc23)cc1C1CCCC1 + Cc1nc(NC(=O)N2CCC[C@H]2C(N)=O)sc1-c1ccnc(C(C)(C)C(F)(F)F)c1 [Alpelisib] (partner 2 µM)"
measured = 1.01

[[record]]
compound = "O=C(O)c1ccc(-c2c[nH]c3ncc(-c4ccccc4)cc23)cc1C1CCCC1 + O=C(CCCCCCC(=O)Nc1ccccc1)NO [Vorinostat] (partner 1 µM)"
measured = 0.67

[[record]]
compound = "O=C(O)c1ccc(-c2c[nH]c3ncc(-c4ccccc4)cc23)cc1C1CCCC1 + O=C(c1cc(Cc2n[nH]c(=O)c3ccccc23)ccc1F)N1CCN(C(=O)C2CC2)CC1 [Olaparib] (partner 8 µM)"
measured = 0.495

[[record]]
compound = "O=C(O)c1ccc(-c2c[nH]c3ncc(-c4ccccc4)cc23)cc1C1CCCC1 + Nc1nc2[nH]cc(CCc3ccc(C(=O)N[C@@H](CCC(=O)O)C(=O)O)cc3)c2c(=O)[nH]1 [Pemetrexed] (partner 0.2 µM)"
measured = 1.14


Requested read-out: relative viability. Entry: O=C(O)c1ccc(-c2c[nH]c3ncc(-c4ccccc4)cc23)cc1C1CCCC1 + C[C@]1(O)C[C@@H](c2nc(-c3ccc4ccc(-c5ccccc5)nc4c3)c3c(N)nccn32)C1 [Linsitinib] (partner 1 µM)
1.06

Data provenance is the supplement of paper PMC10307832.
